- Test system: Mus musculus
- assayName: Inhibition of estradiol-induced uterine edema in mouse at 10 mg/kg, po
- experimentalContext: read-out: Inhibition
measuredParameter: inhibition in vivo at 10 mg/kg (%)

INSERT INTO measurements (compoundsmiles, measuredparameter, unitofmeasure, relationqualifier, endpointresult) VALUES
  ('Cc1cc(NC(=O)Nc2ccc(-c3cncc4[nH]nc(N)c34)cc2)ccc1F', 'inhibition in vivo at 10 mg/kg', '%', '=', 19),
  ('Cc1cc(C)cc(NC(=O)Nc2ccc(-c3nccc4[nH]nc(N)c34)cc2)c1', 'inhibition in vivo at 10 mg/kg', '%', '<', 5),
  ('Cc1ccc(F)c(NC(=O)Nc2ccc(-c3cncc4[nH]nc(N)c34)cc2)c1', 'inhibition in vivo at 10 mg/kg', '%', '=', 98),
  ('Cc1cc(C)cc(NC(=O)Nc2ccc(-c3ccnc4[nH]nc(N)c34)cc2)c1', 'inhibition in vivo at 10 mg/kg', '%', '=', 77),
  ('Nc1n[nH]c2cncc(-c3ccc(NC(=O)Nc4cccc(Cl)c4)cc3)c12', 'inhibition in vivo at 10 mg/kg', '%', '<', 5),
  ('Cc1cccc(NC(=O)Nc2ccc(-c3cncc4c3c(N)nn4C)cc2)c1', 'inhibition in vivo at 10 mg/kg', '%', '=', 79),
  ('Cn1nc(N)c2c(-c3ccc(NC(=O)Nc4ccc(F)c(C(F)(F)F)c4)cc3)cncc21', 'inhibition in vivo at 10 mg/kg', '%', '=', 59),
  ('Cc1ccc(NC(=O)Nc2ccc(-c3ccnc4[nH]nc(N)c34)cc2)cc1', 'inhibition in vivo at 10 mg/kg', '%', '<', 5),
  ('Cc1ccccc1NC(=O)Nc1ccc(-c2ccnc3[nH]nc(N)c23)cc1', 'inhibition in vivo at 10 mg/kg', '%', '<', 5),
  ('Nc1n[nH]c2ccnc(-c3ccc(NC(=O)Nc4cccc(C(F)(F)F)c4)cc3)c12', 'inhibition in vivo at 10 mg/kg', '%', '<', 5);
